Test system: MS2 coat protein
Experimental protocol: apparent KD of MS2 coat protein; designed switch direction (-1 OFF switch, 1 ON switch): -1; higher = weaker reporter binding
Experimental parameters: input ligand: FMN 200 uM
Mark YES for reported apparent KD of MS2 coat protein of 70 nM or greater; mark NO for anything smaller.

• AUGGGUCCUCUCGGAGCGACAUGAGGAUCACCCAUGUGUGUUGAGGAUAUCCACUGCUAAGGACGGGAGAAGGCAGUGUACUGU [Ex NG3 #85] (Eterna round: R96, puzzle: Exclusion NG 3) = NO
• ACAUGUCAUUGAGGAUAUCGCACACAUGAGGAUCACCCAUGUAAACGGAUGCUCUUACGUGGGUUCGAGAAGGCGAUGUACAUU [Ex NG2 #95] (Eterna round: R96, puzzle: Exclusion NG 2) = YES
• GUCUUACAUGAGGAUCACCCAUGUGAGGAUAUGGAUUCGCUGGCCGUAGCCAGUGGAUCCAGAAGGCGCGUGAU [JL-ex1-4.20] (Eterna round: R97, puzzle: Exclusion 1) = NO
• ACCUCACAUGAGGAUCACCCAUGUAAGGAUAUCUUCGCUUUGACGUUGCUCUAUGCGAAGAGAAGGUACACGGA [Xeteed] (Eterna round: R97, puzzle: Exclusion 1) = YES
• AAUGGUAAAGUCAGGAUAUACGUAAAUCGUACUAGGUAGAAGGGACAUGAGGAUCACCCAUGUAUGAUAGUAAA [Ex4 #31] (Eterna round: R97, puzzle: Brourd's mod of Exclusion 4) = NO

---

System: MS2 coat protein
Experimental protocol: apparent KD of MS2 coat protein; designed switch direction (-1 OFF switch, 1 ON switch): 1; higher = weaker reporter binding
Experimental parameters: input ligand: microRNA oligo, concentration not stated
Experimental readout: apparent KD of MS2 coat protein (nM)

* ACAUGAGGAUCACCCAUGUAUAGAUUUGAAUGUUAAGUUACGUAGGAUAUCGUGUUUAGUAUGAUCGAGAAGGACGAUCUGAUA [JR_SSNG3_Sub066] (Eterna round: R96, puzzle: Same State NG 3) | 18.6
* ACAUGAGACCUAGGAUAUUUUGUACCUACAUGUGACAUGAGGAUCACCCAUGUGGUAAGUAUGAGAAAGAAGGAGGAGAUAUGU [Equivalence 21 - Jieux - Same State NG 2] (Eterna round: R96, puzzle: Same State NG 2) | 30.1
* UUAACAUGAGGAUCACCCAUGUAUACGUAGUUUGCAUUUUGACAGGAUAUUGUUUAUCUAUAUAGCAAGAAGGGUCGUUAGUCU [JR_SSNG3_Sub009] (Eterna round: R96, puzzle: Same State NG 3) | 31.8
* GUUACAUGAGGAUCACCCAUGUAUGUGUGGGAGUAAGUGUCUUAGGAUAUCUAGUAUUUAAUUGAAGAGAAGGAAGAUUGUUGU [JMF's solution 67] (Eterna round: R96, puzzle: Same State NG 3) | 87.2
* GUAGCAUACCGAGGAUAUUCAUACAUGAGGAUCACCCAUGUUUAGGCCAGCAUUAGCUGGCCUUGGGAGAAGGCGGAAUGCUAC [Xeonanis - 20 Mod54] (Eterna round: R96, puzzle: Same State NG 2) | 13.5
* GGUAGGUUACUACCAGACAUGAGGAUCACCCAUGUAAGUGGGAAGGAUAUGGUACCGUUUCGGUACCAGAAGGUCCUAUGUAAG [JL SSNG3 1.45] (Eterna round: R96, puzzle: Same State NG 3) | 88.7
* CCGCUCCGUGGAGGAUAUGGGCCUGCCCGGGAUACCGGGCCUAACACAUGAGGAUCACCCAUGUCCCAGAAGGCCGCUGGAGCC [Rasoleis] (Eterna round: R96, puzzle: Same State NG 2) | 85.1
* AUAUACUGGGUAGGAUAUCUAGGAUAUGGGAAAGACUAAGUCUGUAGGUCACCUAACCCAGAUGGAGAGAAGGACCCAACACAC [pwkr ssNG2 2FMN + F9.42] (Eterna round: R96, puzzle: Same State NG 2) | 5.2
* GGUCCAUCAUGAGGAUAUGGCACCUUAUUGGUGCCAGAAGGCAUGUCUAUAGACAUGAGGAUCACCCAUGUAAUAAAUUGGACC [Eli NG1ss - 93] (Eterna round: R96, puzzle: Same State NG 1) | 344

---

System: MS2 coat protein
Experimental protocol: apparent KD of MS2 coat protein; designed switch direction (-1 OFF switch, 1 ON switch): -1; higher = weaker reporter binding
Experimental parameters: Eterna round: R98; input ligand: FMN 200 uM
Rule: apparent KD of MS2 coat protein of 200 nM or more gives 1; anything lower gives 0.

* AGAUGACAAAGUCAUCUCGCGCAGACAUGAGGAUCACCCAUGUAGGAUAUACUACUCAAAGAGUAGUAGAAGGACAUGUGUCUU [Ex NG2 #57] | 0
* CCAUAAAAGAUCCAAAAUUACAACAUGAGGAUCACCCAUGUGCAGGAUAUCGUGAAAGUAAAGUACGAGAAGGGCAGACACUGC [salish99_ExNG3_r2_008] | 0
* UAUAUAAUUAAGAGCUGGAAAAUCACAUGAGGAUCACCCAUGUAGGAUAUCAGCACGAUAAGUGCUGAGAAGGACUACCAGCUC [Denovo 79] | 0
* UCAUACAUGACAUGACAUGACAUGAGGAUCACCCAUGUUUACAAGGAUAUGUUGAUGAAACAUCAACAGAAGGUGUAAUGGACU [xclu_NG3_cac7] | 1
* AAAUUUAACGAAGGAUAUGCUGACAUGAGGAUCACCCAUGUGUGCCUUGUGUUGCUGCCUCGGGAGCAGAAGGUCGUAUACAUA [Ex NG2 #11] | 1
* AGACUCAGAUGGUGCCAGCUUGCACAUGAGGAUCACCCAUGUCAGGAUAUCUUCGCUCCGAGAGAAGAGAAGGGACAAGAAUUU [Soedon] | 1

---

Tested on: MS2 coat protein
Experimental protocol: apparent KD of MS2 coat protein; designed switch direction (-1 OFF switch, 1 ON switch): -1; higher = weaker reporter binding
Experimental parameters: Eterna round: R95; input ligand: FMN 200 uM
Experimental readout: apparent KD of MS2 coat protein (nM)

- AUGUGGGUACGAAGGUGUAGAUUGAGCGUACGUUCUGGAACAUGAGGAUCACCCAUGUCGCUUUUUGCUCGUCUUAU [JR_SV3TOV2_Sub035] (puzzle: Sensor v3, turn-off variant 2): 25.1
- CGUAUCUUUCACGUGAGUAGUGGGUGCAACAGGUGGGUCACAUGAGGAUCACCCAUGUACUCACUUGCUCGUCUUAU [Grok-var2-07] (puzzle: Sensor v3, turn-off variant 2): 24
- CAUGGAACGUAGGAUAUCUCGCAGCCCGACUGCAGAGAAGGACGUACAUGAGGAUCACCCAUGUAUGAUCCAAA [Vexeoren] (puzzle: Exclusion 6): 29.2

---

Test system: MS2 coat protein
Experimental protocol: apparent KD of MS2 coat protein; designed switch direction (-1 OFF switch, 1 ON switch): -1; higher = weaker reporter binding
Experimental parameters: input ligand: none
Experimental readout: apparent KD of MS2 coat protein (nM)

- CUGGACUGAGGAUAUUGUGCUGCUGACAUGAGGAUCACCCAUGUAUGUUAACUCGGCCGUCGAGAAGGCAGACAGG [BotMod 18 - Jieux - Exclusion 5] (Eterna round: R97, puzzle: Exclusion 5): 19.1
- GGAGGACGAGCAGGAUAUUUUUACAUGAGGAUCACCCAUGUGUAAUCAGGGUAAUCCUCCACCGAAAAGAAGGGUUCGGAAGAA [Mat - Exclusion NG 2 - Mod of JL - D84] (Eterna round: R96, puzzle: Exclusion NG 2): 70.6
- ACCUCACAUGAGGAUCACCCAUGUAAGGAUAUCUUCGCUUUGACGUUGCUCUAUGCGAAGAGAAGGUACACGGA [Xeteed] (Eterna round: R97, puzzle: Exclusion 1): 20.6
- CCUCUUGGGCAAGGAUAUCCUGUGCGGUUCCGGCUCGUGUCUGUCACAUGAGGAUCACCCAUGUGGGAGAAGGUGCCUGCGGUC [Design 80] (Eterna round: R96, puzzle: Exclusion NG 2): 16.3
- UCCCGAUACUAGGAUAUGAGUUCACAGGAACGAUCAGAAGGAGUUACAUGAGGAUCACCCAUGUGGGUGUAUUG [Eternabot (L1) Solution 37] (Eterna round: R97, puzzle: Exclusion 6): 237

---

System: MS2 coat protein
Experimental protocol: apparent KD of MS2 coat protein; designed switch direction (-1 OFF switch, 1 ON switch): -1; higher = weaker reporter binding
Experimental parameters: input ligand: FMN 200 uM
# key: entry, value: apparent KD of MS2 coat protein
Experimental readout: apparent KD of MS2 coat protein (nM)

• AAACAAACGGCAGGAUAUCCUCGUCAACACCACAAGUCCACUCGGACAUGAGGAUCACCCAUGUAGGAGAAGGGUCAGAAAUAC [ExNG2 4th] (Eterna round: R96, puzzle: Exclusion NG 2) = 37.2
• GCCGAAAAAGUGAGGAUAUACCUAUGGAUACAUAGGUAGAAGGCACAUGAGGAUCACCCAUGUAUCCUAACGGC [Eli bmx4 4.28] (Eterna round: R97, puzzle: Brourd's mod of Exclusion 4) = 362
• CAAUAAAAGCGAGGAUAUCCGUAUAAAGAUACAGGAGAAGGUGCGGGUACUCCUCACAUGAGGAUCACCCAUGUAAGAAAUAAA [Erxeraso] (Eterna round: R96, puzzle: Exclusion NG 1) = 67.4
